src = the supplement of paper PMC10567573

B1: WSB1 (parent)
chain: DLKDDGNMMKVLRGHQNWVYSCAF

Variants of: B1
Experiment: protein stability index of a GFP-peptide fusion (GPS, HEK-293T) (PSI 1-6); higher = more stable;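 also: lentivirally expressed fusions sorted by FACS into six bins by GFP to DsRed ratio, PSI derived from sequencing read proportions per bin multiplied by bin number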
Settings: c terminus: a fixed tail appended
Outcome Measure: protein stability index

- L2E: 1.95
- H15I: 1.96
- D1M: 2.04
- V11M: 2
- V11E: 2.01
- S21P: 2.05
- L12D: 2.01
- K10Q: 2.02
- R13P: 2.02
